Target: Cytochrome P450 1A2 (Homo sapiens)
Test: Cytochrome panel assay with activity outcomes
Conditions: recombinant CYP, pro-luciferin dealkylation, luminescence, p450-cyp1a2; series mostly up to 57.1 µM
Hit rate of the full screen: of about 16,000 compounds, about 5,700 (36%) were called active. About 24% were inconclusive and are not listed. Calls follow the shape of the dose curve; as a rule, active = well fitted curve in the direction sought with a large enough effect; inconclusive = small, poorly fitted or top-dose-only effect, or effect the other way; inactive = no such curve, though single readings can be large or run the other way. The list shows a part of the results.
Classes used: active, inactive

{"columns": ["Compound", "Classification"],
 "data": [
  ["C=CCn1c(SCC)nc2sc3c(c2c1=O)CCc1ccccc1-3", "active"],
  ["N#Cc1c(-c2ccccc2)ccnc1Oc1ccccc1", "active"],
  ["CO[C@H]1C[C@@H](O[C@@H]2[C@H](C)[C@H](O[C@@H]3O[C@@H](C)C[C@@H](N(C)C)[C@@H]3O)[C@H](C)C[C@]3(CO3)C(=O)[C@H](C)[C@H](O)[C@H](C)[C@H](C)OC(=O)[C@@H]2C)O[C@@H](C)[C@H]1O", "inactive"],
  ["CNc1nc(-c2ccoc2)nc2ccccc12", "active"],
  ["c1ccc2c(Nc3ccncc3)nc(-c3ccoc3)nc2c1", "active"],
  ["CC(C)C(=O)Nc1cc2c(cc1C(=O)c1ccccc1)OCCO2", "active"],
  ["O=C(c1ccco1)N1CCC2(CC1)CCN(c1cccc(-c3ccccc3)c1)CC2", "active"],
  ["CCN1C(=O)C(CC(=O)Nc2ccc(OC)cc2)N(Cc2cccnc2)C1=S (configuration not stated)", "inactive"],
  ["Cc1cc(C)c(C#N)c(Oc2ccc(F)cc2)n1", "active"],
  ["O=C(c1ccco1)N1CCC2(CCCN(c3ccccc3)C2)CC1", "inactive"],
  ["Cn1cc(/C=N/n2cnc3scc(-c4ccccc4)c3c2=O)c2ccccc21", "active"],
  ["O=C(c1ccco1)N1CCC[C@@]2(CCN(c3ccncc3)C2)C1", "active"],
  ["COc1ccc2c(Cl)c(-c3nnco3)sc2c1", "active"],
  ["CC1(C)Cc2c(sc3nc(SCC(=O)NCc4ccccc4)n(-c4ccccc4)c(=O)c23)CS1", "inactive"],
  ["O=C(c1ccco1)N1CCC2(CC1)CN(c1ccccc1)C2", "inactive"],
  ["CCCC[C@@H]1C[C@H]1C(NC(=O)c1ccc(-c2ccccc2)cc1)c1ccc(-c2ccccc2)cc1 (some centres not stated)", "inactive"],
  ["CCc1cccc(NC(=O)CN(C)S(=O)(=O)c2cnc[nH]2)c1", "inactive"],
  ["O=C(c1ccco1)N1CCC[C@@]2(CCN(Cc3ccccc3)C2)C1", "inactive"],
  ["Cn1cc(/C=N/n2cnc3sc4c(c3c2=O)CCCC4)c2ccccc21", "active"],
  ["O=C(c1ccco1)N1CCC2(CC1)CCN(c1ccccc1)CC2", "inactive"],
  ["O=C1CC(=O)N(CCc2ccc(F)cc2)C(=O)N1", "inactive"],
  ["CCCC(=O)Nc1cccc(Oc2nc(C)cc(C)c2C#N)c1", "active"]
]}

====

Target: Cytochrome P450 1A2 (Homo sapiens)
Assay: Cytochrome panel assay with activity outcomes
Conditions: recombinant CYP, pro-luciferin dealkylation, luminescence, p450-cyp1a2; series mostly up to 57.1 µM
In all, about 16,000 compounds went through this assay and about 5,700 (36%) were called active. Another 24% or so got no clear call; they are omitted. This is one part of the list.
Quantity name: AC50

{"columns": ["Compound", "Quantity name", "Measured result"],
 "data": [
  ["COc1ccc(C(=O)NC2CCN(C(=S)Nc3cccc(C)c3)CC2)cc1", "AC50", "inactive"],
  ["CC12CCC(C(=O)Nc3cccc4ccccc34)(C1Br)C2(C)C (stereo unspecified)", "AC50", "22400 nM (active)"],
  ["COc1ccccc1/C=N/NC(=O)CC(=O)Nc1ccc(Cl)c(Cl)c1", "AC50", "1780 nM (active)"],
  ["Nc1ccc(S(=O)(=O)Nc2cnc3ccccc3n2)cc1", "AC50", "inactive"],
  ["CCOC(=O)c1c(-c2ccc(C)o2)csc1NC(=S)NC(=O)N(C)C", "AC50", "1580 nM (active)"],
  ["COc1cc(/C=N/NC(=O)c2cccs2)ccc1OCc1ccccc1", "AC50", "794 nM (active)"],
  ["c1cnc2ccc(C(c3nnnn3C3CCCC3)N3CCN4CCCC4C3)cc2c1 (stereo unspecified)", "AC50", "inactive"],
  ["Cc1cccc(NC2=NC(=S)N(c3ccc(C(=O)O)cc3)C23CCCCC3)c1", "AC50", "inactive"],
  ["O=C(Nc1ccc(-c2nc3ccccc3o2)cc1)c1ccc(N2CCOCC2)c([N+](=O)[O-])c1", "AC50", "inactive"],
  ["O=C1NC(O)=NC1(c1ccccc1)c1ccccc1", "AC50", "inactive"],
  ["CC(C)C(=O)c1c(C(C)C)nn2ccccc12", "AC50", "631 nM (active)"]
]}
